Source: PubChem BioAssay AID743279

- method: qHTS for Inhibitors of Inflammasome Signaling: IL-1-beta AlphaLISA Primary Screen; also: % is scaled to controls: 0 for no effect and ±100 for the full control effect
- details: THP-1 LPS/ATP IL-1B secretion, 16 h; at 57.5 µM
Among all 360,000 compounds or so, about 17,000 (4.7%) were called active. About 5% were inconclusive and are not listed. Rule as the data show it: active = activity change below about -50%; inconclusive = mostly about -30% to -49%; inactive = weaker than that. The sample as a whole holds a higher share of actives than the screen did.
Give one outcome, nothing more. List: True = active, False = inactive

Would you mind telling me which call this test gave COc1cc2c(cc1OC)CN(CC(=O)Nc1ccc(F)cc1)CC2 ?
False

Would you mind telling me which call this test gave COc1c(C)cc(C(O)c2ncc(-c3cccc(C(F)(F)F)c3)[nH]2)cc1C (stereo unspecified) ?
False

Would you mind telling me which call this test gave O=C(CN1C(=O)NC2(CCOc3ccccc32)C1=O)NCc1ccc(F)cc1 (stereo unspecified) ?
False

Would you mind telling me which call this test gave O=C(NC1CCN(Cc2ccccc2)CC1)c1ccc(Oc2cc(Cl)cc(Cl)c2)o1 ?
True

Would you mind telling me which call this test gave O=C(NC1CCN(Cc2ccccc2)CC1)c1cc(Br)c(Br)[nH]1 ?
True

Would you mind telling me which call this test gave COc1cc2[nH]c(=O)n(Cc3ccc(C(=O)NC4CCN(Cc5ccccc5)CC4)cc3)c(=O)c2cc1OC ?
False

Would you mind telling me which call this test gave CCCCCOc1ccc(CSC2=NCCN2)cc1[N+](=O)[O-] ?
True

Would you mind telling me which call this test gave CCCCOc1ccc(CSC(=N)N)cc1[N+](=O)[O-] ?
True

Would you mind telling me which call this test gave Cc1cc(C)n2c(NCc3ccccc3)c(CC(C)C)nc2n1 ?
False

Would you mind telling me which call this test gave COc1ccc(C)cc1N(C(=O)Cn1nnc(-c2ccc(C)o2)n1)C(C(=O)NC1CCCC1)c1ccncc1 (stereo unspecified) ?
False

Would you mind telling me which call this test gave CCCCn1c(N)c(N(CCOC)C(=O)c2sc3ccccc3c2Cl)c(=O)[nH]c1=O ?
False

Would you mind telling me which call this test gave CC(=O)Nc1ccccc1OC(C)C(=O)N1CCC(C)CC1 (stereo unspecified) ?
False

Would you mind telling me which call this test gave CN1CCN(CCCNC(=O)c2ccc(/C=C3\Oc4ccccc4N(Cc4ccc(Cl)cc4)C3=O)cc2)CC1 ?
True

Would you mind telling me which call this test gave CCOc1ccc(CC(=O)NC2CCN(Cc3ccccc3)CC2)cc1 ?
False

Would you mind telling me which call this test gave COc1cc(NC(=O)c2cc(-c3ccc(F)cc3OC(C)C)n[nH]2)cc(OC)c1OC ?
False

Would you mind telling me which call this test gave Cc1ccc(-c2nc3c(Cl)cc(C(F)(F)F)cn3c2Cc2cccc(Cl)c2)cc1 ?
False

Would you mind telling me which call this test gave CCCN1CCN(CCCNC(=O)CN2C(=O)COc3ccccc32)CC1 ?
False

Would you mind telling me which call this test gave CC(=O)Nc1ccc(S(=O)(=O)Nc2ccc(N3CCCCC3)cc2)cc1 ?
False

Would you mind telling me which call this test gave COc1cc(C(=O)OCC(=O)N(CC(C)C)C2CCS(=O)(=O)C2)ccc1OCC(C)C (stereo unspecified) ?
False

Would you mind telling me which call this test gave O=[N+]([O-])c1ccccc1OCCCCN1CCCCC1 ?
False

Would you mind telling me which call this test gave CNc1cncc(-c2ccc(NS(C)(=O)=O)cc2)n1 ?
False

###

- method: qHTS for Inhibitors of Inflammasome Signaling: IL-1-beta AlphaLISA Primary Screen
- details: THP-1 LPS/ATP IL-1B secretion, 16 h; at 57.5 µM, active compounds read low
Screen size: about 360,000 compounds; about 17,000 (4.7%) were called active. Not shown: some 5% with an inconclusive outcome. Many of the other results were omitted from the sample, so actives are more common in it than they were.
Would you mind telling me the reported activity change of each entry?
Numeric only. Scale: %

get_value(item= COc1nc(N=C(N)N)nc2c(C)cccc12 , readout=activity change) returns -63.3

get_value(item= C#CCN(C[C@H]1[C@H](OC(=O)NC2CCCC2)[C@H](OC(=O)NC2CCCC2)C[C@H]2C(=O)N(c3ccccc3)C(=O)[C@@H]12)S(=O)(=O)c1ccc(C)cc1 , readout=activity change) returns -9.89

get_value(item= CC1(C)Cc2ccccc2-c2nc(CN3CCOCC3)[nH]c(=O)c21 , readout=activity change) returns 0

get_value(item= N#CCCC(C#N)(c1cccnc1)N1CCOCC1 (stereo not given) , readout=activity change) returns 2.31

get_value(item= Cc1ccc(O)c(CNc2nc3ccccc3n2C)c1 , readout=activity change) returns -11.8

get_value(item= CCCCNC(=O)C[C@@H]1C[C@@]2(C(=O)OCC)CCC=C2N(Cc2ccco2)C1=O , readout=activity change) returns 14.5

get_value(item= CC(C)n1c(NCc2c[nH]c3ccccc23)nc2ccccc21 , readout=activity change) returns -81.7

get_value(item= Cc1ccc(S(=O)(=O)N2C[C@]3(O)C[C@@H]4C(=O)N(c5ccccc5)C(=O)[C@@H]4C[C@]3(OC(=O)NC3CC3)C2)cc1 , readout=activity change) returns -19.7

get_value(item= CCc1c(C)nc2c(OC)cccc2c1Cl , readout=activity change) returns -3.94

get_value(item= Cc1nc(N=C(N)N)nc2c(C)cccc12 , readout=activity change) returns -96
